PROTOCOL SUMMARY: Log partition coefficient of solvent A
Format: physicochemical
I'd appreciate it if you marked entries 1 when Log partition coefficient is lower than 2 and -1 when it is not.

[Q] Is Log partition coefficient of CC(O)Cc1ccccc1 (stereo not drawn) strictly below 2?
[A] 1

[Q] Problem: For the molecule `OCCOc1ccccc1` , is Log partition coefficient under 2?
[A] 1

[Q] Quick check: does `OCc1ccccc1` have Log partition coefficient under 2?
[A] 1

[Q] Is 2 strictly greater than the molecule's reported Log partition coefficient? molecule: `OCCCc1ccccc1`
[A] 1

[Q] Check if Log partition coefficient falls below 2 for `OCCCCc1ccccc1` .
[A] -1

[Q] Here's an entry: CC(O)COc1ccccc1 (stereo not drawn) . Is its Log partition coefficient below 2?
[A] 1

* * *

PROTOCOL SUMMARY: Water solubility of solvent A at 20° C.
Type: physicochemical
CONDITION SET: 20° C.
EXPERIMENTAL ENDPOINT: Water solubility (% by mass)
Field format: number, assumed % by mass, no unit text.

Observe how each entry below is paired with its result.
1. OCCCc1ccccc1; 0.568
2. CC(O)Cc1ccccc1 (stereo not shown); 0.58
3. CC(O)COc1ccccc1 (stereo not shown); 1.1
4. OCCOc1ccccc1; 2.67
5. OCCCCc1ccccc1; 0.1
6. OCc1ccccc1; 4.29

# input for lookup
[Q] Please look up its Water solubility (% by mass): `OCCc1ccccc1`
[A] 2.2

* * *

Catalogue of Vapor pressure (mmHg) readings, one per entry.
PROTOCOL SUMMARY: Vapor pressure of solvent A at 20° C.
Format: physicochemical
The reply should be a number in mmHg, with the unit left off.

1. CC(O)COc1ccccc1 (stereo not drawn); 0
2. OCc1ccccc1; 0.1
3. OCCc1ccccc1; 0.1
4. OCCOc1ccccc1; 0
5. OCCCCc1ccccc1; 0

In the following, a different compound is considered.
[Q] Dear colleague, I am looking for the recorded Vapor pressure (mmHg) of the following compound: `OCCCc1ccccc1`
[A] 0

* * *

PROTOCOL SUMMARY: Surface tension of solvent A at 20° C.
Format: physicochemical
EXPERIMENTAL ENDPOINT: Surface tension (mN/m)
Answer in mN/m, number only, no unit symbol.

Observe how each entry below is paired with its result.
1. OCCCCc1ccccc1; 38.3
2. CC(O)Cc1ccccc1 (stereo not shown); 37.3
3. OCc1ccccc1; 39
4. OCCOc1ccccc1; 40
5. OCCCc1ccccc1; 38.9

[Q] Given the entry `OCCc1ccccc1` , report its measured Surface tension (mN/m).
[A] 39.7

[Q] If you can, please state the reported Surface tension (mN/m) value of CC(O)COc1ccccc1 (stereo not shown) .
[A] 37.7
